- Organism: Rattus norvegicus
- ASSAY NOTES: Open TG-GATES - Regimen: Single
- Assay type: toxicity, organism-based, Sprague-Dawley
- Set-up: regimen Single, gender Male, age 6 weeks
- MEASUREMENT CONTEXT: in vivo, po, 0 mg/kg, 3 h, tissue Blood, route gavage, dose level Control
ASSAY READOUT: Neu (%)
Report the value in % with no unit label.

Solved cases (3 shown):
[[record]]
molecule = "Oc1ncnc2[nH]ncc12 [ALLOPURINOL]"
recorded_number = 18.6

[[record]]
molecule = "C[C@](N)(Cc1ccc(O)c(O)c1)C(=O)O [METHYLDOPA]"
recorded_number = 20.4

[[record]]
molecule = "CCSCC[C@H](N)C(=O)O [ETHIONINE]"
recorded_number = 16.4


Kindly note the recorded Neu for CC(C)(S)[C@@H](N)C(=O)O [PENICILLAMINE] , which is 15.8

Kindly note the recorded Neu for CC(=O)Oc1cc(C(C)C)c(OCCN(C)C)cc1C [MOXISYLYTE] , which is 19.2

Kindly note the recorded Neu for CN1C(=O)OC(C)(C)C1=O [TRIMETHADIONE] , which is 16

Kindly note the recorded Neu for CCC(C)(C)C(=O)O[C@H]1C[C@@H](C)C=C2C=C[C@H](C)[C@H](CC[C@@H]3C[C@@H](O)CC(=O)O3)[C@H]21 [SIMVASTATIN] , which is 9.6

Kindly note the recorded Neu for CC(=N)S [THIOACETAMIDE] , which is 13.4

Kindly note the recorded Neu for CCN1CCCC1CNC(=O)c1cc(S(N)(=O)=O)ccc1OC (stereo not given) [SULPIRIDE] , which is 16

Kindly note the recorded Neu for CC(C)C(=O)Nc1ccc([N+](=O)[O-])c(C(F)(F)F)c1 [FLUTAMIDE] , which is 17.4

----------
- Species: Rattus norvegicus
- ASSAY NOTES: Open TG-GATES - Regimen: Daily Repeat
- Format: toxicity, organism-based, Sprague-Dawley
- Design: regimen Daily Repeat, gender Male, age 6 weeks
- MEASUREMENT CONTEXT: in vivo, po, 0 mg/kg, […], tissue Plasma, route gavage, dose level Control, time 14 day
ASSAY READOUT: CRE
Entry format: amount then unit.

Kindly note the recorded CRE for `CCSCC[C@H](N)C(=O)O` , which is 0.4 mg/dL

Kindly note the recorded CRE for `CCc1oc2ccccc2c1C(=O)c1cc(I)c(O)c(I)c1` , which is 0.5 mg/dL

Kindly note the recorded CRE for CCN1CCCC1CNC(=O)c1cc(S(N)(=O)=O)ccc1OC (stereo unspecified) [SULPIRIDE] , which is 0.2 mg/dL

Kindly note the recorded CRE for CC(=N)S [THIOACETAMIDE] , which is 0.6 mg/dL

Kindly note the recorded CRE for `CN1C(=O)OC(C)(C)C1=O` , which is 0.2 mg/dL

Kindly note the recorded CRE for `C[C@]12CCC(=O)C=C1CC[C@@H]1[C@@H]2CC[C@@]2(C)[C@H]1CC[C@]2(C)O` , which is 0.2 mg/dL

Kindly note the recorded CRE for `C[C@](N)(Cc1ccc(O)c(O)c1)C(=O)O` , which is 0.2 mg/dL

Kindly note the recorded CRE for `C#C[C@]1(O)CC[C@H]2[C@@H]3CCc4cc(O)ccc4[C@H]3CC[C@@]21C` , which is 0.2 mg/dL

Kindly note the recorded CRE for `CC(=O)Oc1cc(C(C)C)c(OCCN(C)C)cc1C` , which is 0.2 mg/dL

Kindly note the recorded CRE for `Nc1nc(N)c2nc(-c3ccccc3)c(N)nc2n1` , which is 0.2 mg/dL

Kindly note the recorded CRE for `CCC(C)(C)C(=O)O[C@H]1C[C@@H](C)C=C2C=C[C@H](C)[C@H](CC[C@@H]3C[C@@H](O)CC(=O)O3)[C@H]21` , which is 0.6 mg/dL

Kindly note the recorded CRE for `Oc1ncnc2[nH]ncc12` , which is 0.6 mg/dL

Kindly note the recorded CRE for CC(C)C(=O)Nc1ccc([N+](=O)[O-])c(C(F)(F)F)c1 [FLUTAMIDE] , which is 0.4 mg/dL

Kindly note the recorded CRE for `O=C(O)c1cccnc1` , which is 0.2 mg/dL

Kindly note the recorded CRE for `O=C(N[C@H](CO)[C@H](O)c1ccc([N+](=O)[O-])cc1)C(Cl)Cl` , which is 0.2 mg/dL

Kindly note the recorded CRE for `CC(C)(S)[C@@H](N)C(=O)O` , which is 0.2 mg/dL

----------
Bas listing for selected compounds.
- Organism: Rattus norvegicus
- ASSAY NOTES: Open TG-GATES - Regimen: Daily Repeat
- Assay type: toxicity, organism-based, Sprague-Dawley
- Set-up: regimen Daily Repeat, gender Male, age 6 weeks
- MEASUREMENT CONTEXT: in vivo, po, 300 mg/kg, […], tissue Blood, route gavage, dose level Middle, time 28 day
Report the value in % with no unit label.

[[record]]
compound = "O=C(O)c1cccnc1"
assay_readout = "Bas"
recorded_number = 0

[[record]]
compound = "CCN1CCCC1CNC(=O)c1cc(S(N)(=O)=O)ccc1OC (centres undefined) [SULPIRIDE]"
assay_readout = "Bas"
recorded_number = 0.2

[[record]]
compound = "O=C(N[C@H](CO)[C@H](O)c1ccc([N+](=O)[O-])cc1)C(Cl)Cl"
assay_readout = "Bas"
recorded_number = 0


# input for lookup
Kindly note the recorded Bas for `CC(C)(S)[C@@H](N)C(=O)O` , which is 0.4

----------
- Species: Rattus norvegicus
- ASSAY NOTES: Open TG-GATES - Regimen: Daily Repeat
- Format: toxicity, organism-based, Sprague-Dawley
- Design: regimen Daily Repeat, gender Male, age 6 weeks
- MEASUREMENT CONTEXT: in vivo, po, 1000 mg/kg, 72 h, tissue Plasma, route gavage, dose level High, time 3 day
TG listing for selected compounds.
Report the value in mg/dL with no unit label.

Solved cases (3 shown):
[[record]]
compound = "O=C(O)c1cccnc1"
recorded_number = 97.6

[[record]]
compound = "CC(C)(S)[C@@H](N)C(=O)O"
recorded_number = 50.4

[[record]]
compound = "O=C(N[C@H](CO)[C@H](O)c1ccc([N+](=O)[O-])cc1)C(Cl)Cl"
recorded_number = 82.6


# input for lookup
Kindly note the recorded TG for CCN1CCCC1CNC(=O)c1cc(S(N)(=O)=O)ccc1OC (centres undefined) [SULPIRIDE] , which is 112

----------
- Organism: Rattus norvegicus
- ASSAY NOTES: Open TG-GATES - Regimen: Daily Repeat
- Type: toxicity, organism-based, Sprague-Dawley
- Parameters: regimen Daily Repeat, gender Male, age 6 weeks
- MEASUREMENT CONTEXT: in vivo, po, 0 mg/kg, […], tissue Plasma, route gavage, dose level Control, time 14 day
ASSAY READOUT: LDH (IU/L)
Report the value in IU/L with no unit label.

[[record]]
compound = "C#C[C@]1(O)CC[C@H]2[C@@H]3CCc4cc(O)ccc4[C@H]3CC[C@@]21C [ETHINYL ESTRADIOL]"
assay_readout = "LDH"
recorded_number = 72.8

[[record]]
compound = "CN1C(=O)OC(C)(C)C1=O [TRIMETHADIONE]"
assay_readout = "LDH"
recorded_number = 98.8

[[record]]
compound = "O=C(O)c1cccnc1 [NIACIN]"
assay_readout = "LDH"
recorded_number = 163.6


Kindly note the recorded LDH for CCSCC[C@H](N)C(=O)O [ETHIONINE] , which is 177.2

Kindly note the recorded LDH for CCC(C)(C)C(=O)O[C@H]1C[C@@H](C)C=C2C=C[C@H](C)[C@H](CC[C@@H]3C[C@@H](O)CC(=O)O3)[C@H]21 [SIMVASTATIN] , which is 74.6

Kindly note the recorded LDH for CC(C)C(=O)Nc1ccc([N+](=O)[O-])c(C(F)(F)F)c1 [FLUTAMIDE] , which is 150

Kindly note the recorded LDH for CCN1CCCC1CNC(=O)c1cc(S(N)(=O)=O)ccc1OC (stereo not given) [SULPIRIDE] , which is 67

Kindly note the recorded LDH for C[C@](N)(Cc1ccc(O)c(O)c1)C(=O)O [METHYLDOPA] , which is 66.2

Kindly note the recorded LDH for `Nc1nc(N)c2nc(-c3ccccc3)c(N)nc2n1` , which is 60.4

Kindly note the recorded LDH for CCc1oc2ccccc2c1C(=O)c1cc(I)c(O)c(I)c1 [BENZIODARONE] , which is 97.2

----------
Ht listing for selected compounds.
- Organism: Rattus norvegicus
- ASSAY NOTES: Open TG-GATES - Regimen: Daily Repeat
- Type: toxicity, organism-based, Sprague-Dawley
- Design: regimen Daily Repeat, gender Male, age 6 weeks
- MEASUREMENT CONTEXT: in vivo, po, 100 mg/kg, […], tissue Blood, route gavage, dose level Low, time 14 day
Report the value in % with no unit label.

Kindly note the recorded Ht for `CC(C)(S)[C@@H](N)C(=O)O` , which is 43.6

Kindly note the recorded Ht for `O=C(O)c1cccnc1` , which is 41.5

Kindly note the recorded Ht for CCN1CCCC1CNC(=O)c1cc(S(N)(=O)=O)ccc1OC (centres undefined) [SULPIRIDE] , which is 44

Kindly note the recorded Ht for `O=C(N[C@H](CO)[C@H](O)c1ccc([N+](=O)[O-])cc1)C(Cl)Cl` , which is 43.4
